Catalogue of area under the dose-response curve readings, one per entry.
# System: SB.mhdgc-1
# experiment_notes: area under the dose-response curve of % viability (trapezoidal, 11 doses) (% viability x log10 concentration); higher = less cytotoxic
# condition_set: SB.mhdgc-1 (hereditary c.1380delA CDH1 gastric cancer)

Some solved entries appear below for comparison.
[
  {
    "compound": "CO[C@H]1C[C@@H]2CC[C@@H](C)[C@@](O)(O2)C(=O)C(=O)N2CCCC[C@H]2C(=O)O[C@H]([C@H](C)C[C@@H]2CC[C@@H](OP(C)(C)=O)[C@H](OC)C2)CC(=O)[C@H](C)/C=C(\\C)[C@@H](O)[C@@H](OC)C(=O)[C@H](C)C[C@H](C)/C=C/C=C/C=C/1C [Ridaforolimus] (top concentration 46.0829 µM)",
    "target_or_test_system": "SB.mhdgc-1",
    "area under the dose-response curve": 383
  },
  {
    "compound": "C[C@H]1CN(C[C@@H](C)O1)CC(=O)NC2=CC=C3SC4=C(CC3=C2)C=CC=C4\\C5=C\\C(=O)\\C=C(/O5)N6CCOCC6 (top concentration 46.0829 µM)",
    "target_or_test_system": "SB.mhdgc-1",
    "area under the dose-response curve": 413
  }
]

Ask: Recall the recorded area under the dose-response curve for CC(C)c1ccc2oc3nc(N)c(C(=O)O)cc3c(=O)c2c1 [Amlexanox] (top concentration 46.0829 µM) with SB.mhdgc-1 and state it.
Result: 477

Ask: Input CCOC(=O)[C@H](CCc1ccccc1)N[C@H]1CS[C@H](c2cccs2)CN(CC(=O)O)C1=O.Cl [Temocapril hydrochloride] (top concentration 46.0829 µM)
Result: 415

Ask: Input COC1=C2OC(=O)\C=C/C2=CC3=C1OC=C3 [Methoxsalen] (top concentration 46.0829 µM)
Result: 476

Ask: Input CC(C)C[C@H](NC(=O)[C@@H](NC(=O)c1cccc(-c2ccccc2)n1)[C@@H](C)O)B(O)O [Delanzomib] (top concentration 46.0829 µM)
Result: 198

Ask: Input CCN1CCC(n2cc(CNc3cc(Cl)c4ncc(C#N)c(Nc5ccc(F)c(Cl)c5)c4c3)nn2)CC1 [Wyeth Cot inhibitor-2] (top concentration 46.0829 µM)
Result: 389
